- Test system: P. falciparum 3D7 growth, pLDH absorbance
- ASSAY PROCEDURE: blood-stage malaria parasite growth potency – strain 3D7, dose response (AID 2305)
READOUT KIND: IC50 (µM)

• CCCNC(=O)C1CCN(C(c2ccccc2)c2ccc(Cl)c(Cl)c2)CC1 (stereo unspecified) = 0.71
• Cc1ccc(/C=C/C(=O)NCCCCCN2CCC(c3c[nH]c4ccccc34)CC2)cc1 = 1.01
• Cc1nc2nc(N)nc(N)c2c(C)c1Cc1cccc(C#N)c1 = 0.92
• CCN1CCN(CC(O)CNC(=O)Nc2ccc(Cl)cc2)CC1 (stereo unspecified) = 0.15
• Fc1ccc2nccc(NN=Cc3ccccc3Cl)c2c1 = 0.92
• CC(Cc1ccc(OCCCCOc2ccccc2)cc1)NCCCN1CCOCC1 (stereo unspecified) = 0.72
